This collection of values is drawn from PubChem BioAssay AID1159580.

Measured normalized growth accompanies every entry in the list below.
- assay: chemical genetic growth profiling, strain panel (AID 1159580);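 also: tested at 20 µM; growth read once vehicle control cultures reached saturation at 30 °C; 1 = growth at the plate median or of vehicle wells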
- statedConditions: S. cerevisiae deletion strains, growth OD, locus YAL030W, strain snc1, active compounds read low
About 2,000 (36%) of roughly 5,500 compounds were called active. About 18% were inconclusive and are not listed. This is one part of the list.
Number only, please.

The examples below pair each entry with its known result.
[in] Return value of normalized growth for input "Cc1cc(C(C)(C)C)cc(C)c1CC1=NCCN1" , no commentary.
[out] 1

[in] Report normalized growth for "Cc1ccc(N(CC2=NCCN2)c2cccc(O)c2)cc1"
[out] 1.02

[in] Given the compound "Cc1cc(=O)n(-c2ccccc2)n1C" , write its reported normalized growth.
[out] 1

[in] // fetch normalized growth given entry "NCCNCCNCCN"
[out] 0.998

Shifting focus to the compound that follows.
[in] Check the records and state normalized growth for "Cc1cc(C(C)(C)C)c(O)c(C)c1CC1=NCCN1"
[out] 1.01

----------
- assay: chemical genetic growth profiling, strain panel (AID 1159580);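 also: tested at 20 µM; growth read once vehicle control cultures reached saturation at 30 °C; 1 = growth at the plate median or of vehicle wells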
- statedConditions: S. cerevisiae deletion strains, growth OD, locus YBR231C, strain swc5, active compounds read low
In all, about 5,500 compounds went through this assay and about 2,000 (36%) were called active. Roughly 18% stayed inconclusive and do not appear here. The list shows a part of the results.
Quick list: normalized growth per entry.
Lab note: jot down the number only; don't add units.

[in] Specify normalized growth for "COc1ccc2c(c1)[C@]13CCCC[C@H]1[C@H](C2)N(C)CC3" and stop.
[out] 0.937

[in] Quickly give me recorded normalized growth for "CCOc1cccc(C(=O)c2ccc(O)c(O)c2O)c1"
[out] 0.783

[in] Please give the documented normalized growth of "CCCc1nc2c(C)cc(-c3nc4ccccc4n3C)cc2n1Cc1ccc(-c2ccccc2C(=O)O)cc1"
[out] 1.02

[in] Fill in reported normalized growth for this entry: CC(=O)OCC1=C(C(=O)O)N2C(=O)[C@@H](NC(=O)CCCC(N)C(=O)O)C2SC1 (stereo partly drawn)
[out] 0.992

[in] Read off the recorded normalized growth for NC[C@H]1O[C@H](O[C@H]2C(O[C@@H]3O[C@H](CO)[C@@H](O)[C@H]3O)[C@@H](O)[C@H](N)C[C@@H]2N)[C@H](N)[C@@H](O)[C@@H]1O (stereo partly drawn)
[out] 0.998

[in] Using the record for C[C@]12CCC(=O)C=C1CCC1C2[C@@H](O)C[C@@]2(C)C1CC[C@]2(O)C(=O)COC(=O)CCC(=O)O (stereo partly drawn) , state its measured normalized growth.
[out] 1.02

[in] Answer with the recorded normalized growth for the molecule listed here: "CN[C@@H]1[C@@H](O[C@H]2O[C@H](CO)[C@@H](N)[C@H](O)[C@H]2O)O[C@H]2C[C@@H](N)[C@H](O[C@H]3[C@H](O)[C@@H](O)[C@H](N)C[C@@H]3N)O[C@@H]2[C@@H]1O"
[out] 1.02

[in] Provide measured normalized growth value, entry: "CCCCc1nc(Cl)c(CO)n1Cc1ccc(-c2ccccc2-c2nn[nH]n2)cc1"
[out] 0.968

----------
- assay: chemical genetic growth profiling, strain panel (AID 1159580);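 also: tested at 20 µM; growth read once vehicle control cultures reached saturation at 30 °C; 1 = growth at the plate median or of vehicle wells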
- statedConditions: S. cerevisiae deletion strains, growth OD, locus YNL067W, strain RPL9B, active compounds read low
Out of some 5,500 compounds screened, about 2,000 (36%) were called active. Roughly 18% stayed inconclusive and do not appear here. This is one part of the list.
Lab note: anything with normalized growth below 1 is marked Fulfilled; values at 1 or higher are marked Not fulfilled.

[in] Please indicate whether the reported normalized growth of "CC1(C)C=Cc2cc3ccc(=O)oc3cc2O1" is strictly below 1.
[out] Fulfilled

Others:
[in] # strict comparison: is reported normalized growth < 1? input = "CN1CCN(CCCN2c3ccccc3Sc3ccc(C(F)(F)F)cc32)CC1"
[out] Fulfilled

[in] Hello, is normalized growth of the following compound strictly smaller than 1? "CC(=O)NO"
[out] Fulfilled

[in] Take the compound NC1CC1c1ccccc1 (configuration not stated) and say whether its normalized growth is less than 1.
[out] Not fulfilled

[in] Given "COc1cccc(OC)c1C(=O)N[C@@H]1C(=O)N2[C@@H]1SC(C)(C)[C@@H]2C(=O)O" , is recorded normalized growth strictly lower than 1?
[out] Fulfilled

[in] Given "CC[C@@H](CO)NC(=O)[C@@H]1C=C2c3cccc4[nH]cc(c34)C[C@H]2N(C)C1" , is recorded normalized growth strictly lower than 1?
[out] Not fulfilled

[in] I wonder whether CC1(C)C(=O)[C@@H]2O[C@@H]2[C@@]2(C)C1CC(=O)[C@]1(C)C2CC[C@@]2(C)[C@H](c3ccoc3)OC(=O)[C@H]3O[C@]321 (some centres not stated) has normalized growth below 1. Can you tell?
[out] Fulfilled

[in] normalized growth strictly < 1 for this compound? "O=C(OC[C@H]1O[C@H](OC(=O)c2cc(O)c(O)c(OC(=O)c3cc(O)c(O)c(O)c3)c2)[C@H](OC(=O)c2cc(O)c(O)c(OC(=O)c3cc(O)c(O)c(O)c3)c2)[C@@H](OC(=O)c2cc(O)c(O)c(OC(=O)c3cc(O)c(O)c(O)c3)c2)[C@@H]1OC(=O)c1cc(O)c(O)c(OC(=O)c2cc(O)c(O)c(O)c2)c1)c1cc(O)c(O)c(OC(=O)c2cc(O)c(O)c(O)c2)c1"
[out] Fulfilled

[in] Lab note: confirm whether the reported normalized growth for this compound is below 1, equality not counting. compound: "Cc1ccc(N(CC2=NCCN2)c2cccc(O)c2)cc1"
[out] Fulfilled

[in] Dear colleague, could you confirm whether normalized growth of C#C[C@]1(O)CCC2C3CCC4=Cc5oncc5C[C@]4(C)C3CC[C@@]21C (some centres not stated) falls below 1? Thanks.
[out] Fulfilled
